Test system: 3D7 strain of P. falciparum
Experiment: In vitro antimalarial activity versus 3D7 P. falciparum
Format: cell-based, Plasmodium falciparum
Conditions: Plasmodium falciparum, 3D7, read-out: IC50 (nM) 3D7 ± SD, 3D7 strain of P. falciparum, in vitro
Property Measured: IC50

Please report the recorded IC50 for COc1cccc2[nH]c(-c3ccc(Cc4ccc(OC(F)(F)F)cc4)cc3)c(C)c(=O)c12 [6m] .
> 350 nM

Cited source: paper PMC3297363
